assay: In vivo plasma, tissue and CNS exposure and tolerability after systemic dosing in mice; settings: mouse, brain, iv; i.v. 10 mg/kg, 3 hr
readout type: Kp at 3 h
Enter the number alone.

Exam item: For the molecule CN(C)CCNC(=O)c1cc(-c2ccc(O)c3c2C[C@H]2C[C@H]4[C@H](N(C)C)C(O)=C(C(N)=O)C(=O)[C@@]4(O)C(O)=C2C3=O)ccc1F [Compound 1] , give its measured Kp at 3 h value.
Marked response: 0.28

###

experiment: In vivo plasma, tissue and CNS exposure and tolerability after systemic dosing in mice; details: mouse, brain; comparison; dosing not given; read-out: ratio of the concentration in the brain and the concentration in the plasma
readout type: Kp
The response must contain the number and no unit.

Exam item: Check the records and state Kp for CN(C)CCNC(=O)c1cc(-c2ccc(O)c3c2C[C@H]2C[C@H]4[C@H](N(C)C)C(O)=C(C(N)=O)C(=O)[C@@]4(O)C(O)=C2C3=O)ccc1F [Compound 1]
Marked response: 0.29

###

test: In vivo plasma, tissue and CNS exposure and tolerability after systemic dosing in mice; settings: mouse, plasma, iv; i.v. 10 mg/kg, 1 hr; read-out: Plasma level
readout type: concentration at 1 h (ng/mL)
The response must be a number in ng/mL with no trailing unit.

Exam item: Return reported concentration at 1 h. Input compound: CN(C)CCNC(=O)c1cc(-c2ccc(O)c3c2C[C@H]2C[C@H]4[C@H](N(C)C)C(O)=C(C(N)=O)C(=O)[C@@]4(O)C(O)=C2C3=O)ccc1F
Marked response: 900

###

Assay: In vivo plasma, tissue and CNS exposure and tolerability after systemic dosing in mice
Conditions: mouse, plasma, iv; i.v. 10 mg/kg, 0.5 hr; read-out: Plasma level
Experimental: Compound 1 was administered systemically and by continuous intracerebroventricular infusion to mice to evaluate the pharmacokinetics and preliminary safety of the compound. By the systemic route, Compound 1 was well-tolerated at all doses tested including a maximum daily dose of 50 mg/kg for 8 days. […] Compound 1 was also detected in the brain after systemic dosing at levels approximately 22% those in plasma.
readout type: concentration at 0.5 h (ng/mL)
Report as a plain number; the unit ng/mL is understood.

Exam item: Answer with the recorded concentration at 0.5 h for the molecule listed here: CN(C)CCNC(=O)c1cc(-c2ccc(O)c3c2C[C@H]2C[C@H]4[C@H](N(C)C)C(O)=C(C(N)=O)C(=O)[C@@]4(O)C(O)=C2C3=O)ccc1F [Compound 1]
Marked response: 3100

###

test: In vivo plasma, tissue and CNS exposure and tolerability after systemic dosing in mice; details: mouse, brain, iv; i.v. 10 mg/kg, 1 hr; read-out: Brain level
readout type: concentration at 1 h (ng/g)
Expressed in ng/g, but write only the number.

Exam item: Tell me concentration at 1 h reported for CN(C)CCNC(=O)c1cc(-c2ccc(O)c3c2C[C@H]2C[C@H]4[C@H](N(C)C)C(O)=C(C(N)=O)C(=O)[C@@]4(O)C(O)=C2C3=O)ccc1F
Marked response: 210

###

assay: Continuous intracerebroventricular infusion in mice: brain exposure and tolerability; type: in vivo; settings: hSMN2 transgenic mice (original Burghes strain), mouse, brain, other: continuous intracerebroventricular infusion; comparison; dosing not restated (8 mg/kg/day)
readout type: concentration at 6 day (µM)
Kindly provide the numeric value in µM only, without the unit symbol.

Exam item: Answer with reported concentration at 6 day of CN(C)CCNC(=O)c1cc(-c2ccc(O)c3c2C[C@H]2C[C@H]4[C@H](N(C)C)C(O)=C(C(N)=O)C(=O)[C@@]4(O)C(O)=C2C3=O)ccc1F [Compound 1]
Marked response: 200
